Taken from paper PMC11871066.

Target system: T1, biotinylated AviTag FAK FAT protein (human, biotin)
T1 construct: focal adhesion kinase (FAK), focal adhesion targeting (FAT) domain; captured on a streptavidin biosensor; also called focal adhesion targeting (FAT) domain
Experiment notes: SPR; biotinylated AviTag FAT immobilised on a streptavidin (SADH) biosensor, ForteBio Pioneer FE, OneStep gradient injection at 150 µl/min; 100 mM Tris-Cl pH 8.0, 200 mM NaCl, 0.05% Tween-20; peptides 200 µM to 97 nM; KD from kinetic data, one-site model
Measurement parameters: both partners purified
Bridge positions count the residues as written; N and C are the ends. Square brackets hold non-standard residues; d marks the D form. R8 = C=CCCCCCC[C@@](C)(N)C(=O)O; S5 = C=CCCC[C@](C)(N)C(=O)O
Threshold 10 µM. Kd below it: yes. Kd at it or above: no.

Binder	Assigned label
Ac-NL[R8]EWDRLL[S5]EWN-NH2 (staple 3-10) [stapled peptide 1933]	no
Ac-NL[R8]QLDRLL[S5]QLN-NH2 (staple 3-10) [stapled peptide 1910]	no
Ac-[R8]ELDRLL[S5]-NH2 (staple 1-8) [truncated stapled peptide 2011]	no
Ac-DL[R8]ELDRLL[S5]ELD-NH2 (staple 3-10) [stapled peptide 1913]	no
Ac-NL[R8]ALDRLL[S5]ELN-NH2 (staple 3-10) [stapled peptide 2009]	yes
Ac-N[R8]SELDRL[S5]LELN-NH2 (staple 2-9) [stapled peptide 2017]	no
